B1: CCDC6 (parent)
chain: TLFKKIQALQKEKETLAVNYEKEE

Variants of: B1
Assay: protein stability index of a GFP-peptide fusion (GPS, HEK-293T) (PSI 1-6); higher = more stable;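 further: lentivirally expressed fusions sorted by FACS into six bins by GFP to DsRed ratio, PSI derived from sequencing read proportions per bin multiplied by bin number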
Details: c terminus: a fixed tail appended
Values of protein stability index greater than or equal to 3 map to fulfilled; values below map to not fulfilled.

seqtext=TLFKKVQALQKEKETLAVNYEKEE discretelabel=fulfilled
seqtext=TLFKKILALQKEKETLAVNYEKEE discretelabel="not fulfilled"
seqtext=TLFKKIQAMQKEKETLAVNYEKEE discretelabel="not fulfilled"
seqtext=TLFKRIQALQKEKETLAVNYEKEE discretelabel="not fulfilled"

Continue with the next variant.
// query Would you say TLFKKIQALQKEAETLAVNYEKEE shows protein stability index at minimum 3?
// result not fulfilled
